System: ligated intestine
Set-up: species or system female Sprague-Dawley rats
Settings: rat, in vivo, 10 mg/kg
Source text: It is therefore unexpected and novel that in general, the compounds of this invention are not diarrheagenic at dose levels at which they are effective gastric acid secretion inhibitors. One measure of diarrheagenic potential is the ileal ligated rat assay, a description of which follows directly. […] When measured by this assay at effective gastric acid secretion inhibiting doses, as determined by the acute rat fistula assay representative novel compounds of Table IV are non-diarrheagenic.
readout.type: Increase in weight of intestine (g)
Answers are plain numbers, in g.

molecule	scale.unit	Increase in weight of intestine
C=C[C@@H]1C[C@H](O)[C@H](C/C=C\CCCC(=O)O)[C@H]1/C=C/[C@@H](O)CCCCC	g	-0.36
CCCCC[C@H](O)/C=C/[C@H]1C(SC(C)=O)CC(=O)[C@@H]1C/C=C\CCCC(=O)O (stereo partly drawn) [l-11-acetylthio-11-deoxyprostaglandin-E2]	g	-0.02

Request: Query (molecule): CCCCC[C@H](O)/C=C/[C@H]1[C@H](SCC)CC(=O)[C@@H]1C/C=C\CCCC(=O)O [l-11α-ethylthio-11-deoxyprostaglandin-E2, 11-deoxy-11α-ethylthioprostaglandin E2] ; field requested: Increase in weight of intestine
Response: -0.2

###

Test system: gastric acid secretion
Test: Gastric acid secretion inhibition, modified Shay rat procedure
Format: in vivo, rats (male, CFE strain)
Conditions: Rattus norvegicus; intraduodenal, 50 mg/kg; read-out: Percent inhibition of gastric acid secretion
Label true (1) when inhibition in vivo at 50 mg/kg is at or above 40%; anything below gets false (0).

Field: example entries. Status: answers known.
compound	class.name
C=C[C@@H]1CC(=O)[C@H](C/C=C\CCCC(=O)O)[C@H]1/C=C/[C@@H](O)CCCCC [l-11α-vinyl-11-deoxyprostaglandin-E2, 11-deoxy-11α-vinyl-prostaglandin E2]	true (1)
CCCCC[C@H](O)/C=C/[C@@H]1[C@@H](C/C=C\CCCC(=O)O)C(=O)C[C@H]1c1ccccc1 [l-11α-phenyl-11-deoxyprostaglandin-E2, l-11-deoxy-11α-phenylprostaglandin-E2]	true (1)
CCCCC[C@H](O)CC[C@H]1[C@H](C)CC(=O)[C@@H]1CCCCCCC(=O)O	true (1)
CCCCC[C@@H](/C=C/[C@H]1[C@H](SC)CC(=O)[C@@H]1C/C=C\CCCC(=O)OC)OC(C)=O	false (0)
CCCCC[C@@H](/C=C/[C@H]1[C@H](SCC)CC(=O)[C@@H]1C/C=C\CCCC(=O)OC)OC(C)=O	false (0)

Request: Hello, I need to know if CCCCC[C@H](O)/C=C/[C@H]1[C@H](C)CC(=O)[C@@H]1C/C=C\CCCC(=O)O [l-11α-methyl-11-deoxyprostaglandin-E2, 11-deoxy-11α-methyl-prostaglandin E2] has measured inhibition in vivo at 50 mg/kg not below 40%. Thanks!
Response: true (1)

Request: inhibition in vivo at 50 mg/kg >= 40% for "CCCCC[C@@H](/C=C/[C@H]1[C@H](C)CC(=O)[C@@H]1C/C=C\CCCC(=O)OC)OC(C)=O" ?
Response: true (1)

Request: Could you please find out whether CCCCC[C@H](O)/C=C/[C@@H]1[C@@H](C/C=C\CCCC(=O)O)[C@@H](O)C[C@H]1C#N [l-11α-cyano-11-deoxyprostaglandin-F2 α, 11α-cyano-11-deoxyprostaglandin F2 α] has inhibition in vivo at 50 mg/kg that meets 40% or exceeds it?
Response: true (1)

Where do the numbers come from? From patent US4444691A.
